In this section, each of the compounds is paired with its reported GI50.
- Tested on: SK-MEL-2 melanoma
- ASSAY_PROTOCOL: NCI tumour cell line growth inhibition, 48 h
VALUE_TYPE: GI50

[[record]]
cpd_smiles = "Cc1cc(C)c(Cn2cnc3c(Cl)ncnc32)c(C)c1CCl"
value_type = "GI50"
result = "> 100 µM"

[[record]]
cpd_smiles = "COc1ccccc1CNCCCN1C(=O)c2ccc3c4c(ccc(c24)C1=O)C(=O)N(CCCCNCCCN)C3=O"
value_type = "GI50"
result = "1.09 µM"

[[record]]
cpd_smiles = "CCn1c(-c2cc3ccccc3cc2O)nn(C(=O)c2c(Cl)cccc2Cl)c1=S"
value_type = "GI50"
result = "9.05 µM"

